All values here come from ChEMBL document CHEMBL1138205.

Catalogue of pIC50 values
biological target: Acetylcholinesterase (Homo sapiens)
Sequence (P22303 whole entry): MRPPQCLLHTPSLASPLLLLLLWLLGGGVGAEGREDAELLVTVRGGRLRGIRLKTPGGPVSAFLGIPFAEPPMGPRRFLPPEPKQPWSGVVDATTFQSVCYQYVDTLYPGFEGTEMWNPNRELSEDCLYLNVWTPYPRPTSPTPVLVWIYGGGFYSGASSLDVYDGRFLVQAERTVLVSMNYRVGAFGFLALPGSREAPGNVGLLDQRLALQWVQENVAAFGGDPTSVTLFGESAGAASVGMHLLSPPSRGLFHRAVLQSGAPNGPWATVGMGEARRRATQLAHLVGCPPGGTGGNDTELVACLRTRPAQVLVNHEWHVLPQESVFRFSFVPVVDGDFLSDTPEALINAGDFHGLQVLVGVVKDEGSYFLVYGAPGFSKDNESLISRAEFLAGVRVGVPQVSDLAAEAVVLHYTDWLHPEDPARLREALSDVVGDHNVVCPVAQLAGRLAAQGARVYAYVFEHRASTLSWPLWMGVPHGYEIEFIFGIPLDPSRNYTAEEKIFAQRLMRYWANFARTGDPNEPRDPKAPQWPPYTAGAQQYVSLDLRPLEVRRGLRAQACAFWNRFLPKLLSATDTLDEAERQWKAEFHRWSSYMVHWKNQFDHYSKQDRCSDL
pIC50: −log10 of the molar value.
Property: pIC50

Record smiles: COc1cc(CCC(=O)NCC(=O)NNc2c3c(nc4ccccc24)CCCC3)cc(OC)c1OC
Experimental system: Acetylcholinesterase (Homo sapiens)
Property: pIC50
Experimental value: 7.39
//
Record smiles: COc1cc(CCC(=O)NCCCCC(=O)NNc2c3c(nc4ccccc24)CCCC3)cc(OC)c1OC
Experimental system: Acetylcholinesterase (Homo sapiens)
Property: pIC50
Experimental value: 7.23
//
Record smiles: COc1cc(C(=O)NCCC(=O)NNc2c3c(nc4ccccc24)CCCC3)cc(OC)c1OC
Experimental system: Acetylcholinesterase (Homo sapiens)
Property: pIC50
Experimental value: 7.05
//
Record smiles: COc1cc(C(=O)NCCCCCCCC(=O)NNc2c3c(nc4ccccc24)CCCC3)cc(OC)c1OC
Experimental system: Acetylcholinesterase (Homo sapiens)
Property: pIC50
Experimental value: 8.28
//
Record smiles: COc1cc(C(=O)NCCCCCCC(=O)NNc2c3c(nc4ccccc24)CCCC3)cc(OC)c1OC
Experimental system: Acetylcholinesterase (Homo sapiens)
Property: pIC50
Experimental value: 8.25
